Quick reference for MTD at 168 h among some compounds
assay: Toxicity in BALB/c mouse assessed as maximum safe dose administered intraperitoneally measured for 7 days
measurement-conditions: in vivo, route ip, time 7 day
assay-metric: MTD at 168 h (mg/kg)

[[record]]
smiles = "CCCCCNC(=O)C[n+]1ccc(SCCCCCOc2ccc3ccc(=O)oc3c2CC=C(C)C)cc1.[Br-]"
observed_result = 10

[[record]]
smiles = "CC(C)=CCc1c(OCCCCSc2cc[n+](CC(=O)N(CC(C)C)CC(C)C)cc2)ccc2ccc(=O)oc12.[Br-]"
observed_result = 30


* * *

Quick reference for MIC among some molecules
System: Staphylococcus aureus
assay: Antibacterial activity against methicillin-resistant Staphylococcus aureus M14 incubated for 16 to 20 hrs by broth microdilution method
Format: functional
measurement-conditions: time 16-20 hrs
assay-metric: MIC (µg/mL)

[[record]]
smiles = "CCCCN(CCCC)C(=O)C[n+]1ccc(SCCCOc2ccc3ccc(=O)oc3c2CC=C(C)C)cc1.[Br-]"
tested_target = "Staphylococcus aureus"
observed_result = 1

[[record]]
smiles = "CC(C)=CCc1c(OCCCCSc2cc[n+](CC(=O)N(C)c3ccccc3)cc2)ccc2ccc(=O)oc12.[Br-]"
tested_target = "Staphylococcus aureus"
observed_result = 4

[[record]]
smiles = "CC(C)=CCc1c(OCCCSc2cc[n+](CC(=O)N(CC(C)C)CC(C)C)cc2)ccc2ccc(=O)oc12.[Br-]"
tested_target = "Staphylococcus aureus"
observed_result = 2

[[record]]
smiles = "CCCCNC(=O)C[n+]1ccc(SCCCCCOc2ccc3ccc(=O)oc3c2CC=C(C)C)cc1.[Br-]"
tested_target = "Staphylococcus aureus"
observed_result = 1

